Molecular target: Monoacylglycerol lipase ABHD6 (Mus musculus) (UniProt Q8R2Y0)
Sequence (Q8R2Y0 whole entry): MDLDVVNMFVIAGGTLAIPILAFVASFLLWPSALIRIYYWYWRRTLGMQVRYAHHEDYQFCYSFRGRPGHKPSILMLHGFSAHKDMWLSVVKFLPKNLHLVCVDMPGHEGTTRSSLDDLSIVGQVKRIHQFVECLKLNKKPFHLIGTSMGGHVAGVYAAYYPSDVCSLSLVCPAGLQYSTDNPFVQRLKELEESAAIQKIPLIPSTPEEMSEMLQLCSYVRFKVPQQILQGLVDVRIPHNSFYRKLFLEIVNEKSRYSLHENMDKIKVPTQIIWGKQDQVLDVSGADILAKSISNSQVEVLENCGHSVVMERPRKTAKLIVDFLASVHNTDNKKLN
Assay: Inhibition of MB064 labelling of ABHD6 in mouse brain homogenates at 10 uM pretreated for 30 mins followed by MB064 addition and measured after 20 mins by activity based protein profiling assay relative to control
Type: tissue-based
Observed property: inhibition (%)
Numbers only, in %.

Check out these entries, answers already filled in.
- Smiles data: "O=C(N1CCC=C[C@@H]1COCc1ccccc1)n1ccc(-c2ccc(Br)cc2)n1"
  inhibition / %: -3
- Smiles data: "O=C(N1CCC=C[C@H]1Cc1ccccc1)n1cc(-c2ccc(-c3ccccc3)cc2)nn1"
  inhibition / %: 90
- Smiles data: "O=C(N1CCC=C[C@@H]1COCc1ccccc1)n1cc(-c2ccccc2)nn1"
  inhibition / %: 89
- Smiles data: "O=C(N1CCCC[C@@H]1COCc1ccccc1)n1cc(-c2ccc(-c3ccccc3)cc2)nn1"
  inhibition / %: 96

Consider the following items and state reported inhibition for each.
1. O=C(N1C[C@H](O)C=C[C@@H]1COCc1ccccc1)n1cc(-c2ccc(-c3ccccc3)cc2)nn1
2. O=C(N1CCC=C[C@@H]1COCc1ccccc1)n1cc(-c2ccc(Br)cc2)nn1
3. O=C(N1CCC=C[C@@H]1COCc1ccccc1)n1cc(-c2ccc([N+](=O)[O-])cc2)nn1
4. O=C(N1CC=C[C@@H](O)[C@H]1COCc1ccccc1)n1cc(-c2ccc(-c3ccccc3)cc2)nn1

1: 95; 2: 94; 3: 93; 4: 83

Consider the following items and state reported inhibition for each.
1. O=C(N1CCC=C[C@@H]1COCc1ccccc1)n1cc(-c2ccc(Oc3ccccc3)cc2)nn1
2. O=C(N1CCC=C[C@@H]1COCc1ccccc1)n1ccc(-c2ccc(-c3ccccc3)cc2)n1
3. O=C(N1CCC=C[C@@H]1Cc1ccccc1)n1cc(-c2ccc(-c3ccccc3)cc2)nn1
4. O=C(N1CCCC[C@@H]1Cc1ccccc1)n1cc(-c2ccc(-c3ccccc3)cc2)nn1
5. O=C(N1C[C@H](O)C=C[C@H]1COCc1ccccc1)n1cc(-c2ccc(-c3ccccc3)cc2)nn1

[86, -3, 96, 95, 50]

Consider the following items and state reported inhibition for each.
1. O=C(N1CC=C[C@@H](O)[C@@H]1COCc1ccccc1)n1cc(-c2ccc(-c3ccccc3)cc2)nn1
2. O=C(N1CCC=C[C@@H]1COCc1ccccc1)n1cc(-c2ccc(-c3ccccc3)cc2)nn1
3. O=C(N1C[C@H](O)C=C[C@@H]1Cc1ccccc1)n1cc(-c2ccc(-c3ccccc3)cc2)nn1

18
96
96

Consider the following items and state reported inhibition for each.
1. O=C(N1CCC=C[C@H]1COCc1ccccc1)n1cc(-c2ccc(-c3ccccc3)cc2)nn1
2. O=C(N1C[C@@H](O)C=C[C@@H]1COCc1ccccc1)n1cc(-c2ccc(-c3ccccc3)cc2)nn1

1: 84; 2: 95

* * *

Biological target: Diacylglycerol lipase-alpha (Mus musculus)
Assay: Inhibition of MB064 labelling of DAGLalpha in mouse brain homogenates at 10 uM pretreated for 30 mins followed by MB064 addition and measured after 20 mins by activity based protein profiling assay relative to control
Format: tissue-based
Assign class by inhibition: not lower than 80% means MET; lower than 80% means NOT MET.

- Smiles data: "O=C(N1CC=C[C@@H](O)[C@H]1COCc1ccccc1)n1cc(-c2ccc(-c3ccccc3)cc2)nn1"
  Category: "NOT MET"
- Smiles data: "O=C(N1CC=C[C@@H](O)[C@@H]1COCc1ccccc1)n1cc(-c2ccc(-c3ccccc3)cc2)nn1"
  Category: "NOT MET"
- Smiles data: "O=C(N1C[C@H](O)C=C[C@@H]1Cc1ccccc1)n1cc(-c2ccc(-c3ccccc3)cc2)nn1"
  Category: "MET"
- Smiles data: "O=C(N1CCC=C[C@@H]1COCc1ccccc1)n1cnc(-c2ccc(Br)cc2)c1"
  Category: "NOT MET"
- Smiles data: "O=C(N1CCC=C[C@@H]1COCc1ccccc1)n1cc(-c2ccc([N+](=O)[O-])cc2)nn1"
  Category: "MET"

I'd appreciate it if you could say whether O=C(N1C[C@H](O)C=C[C@H]1COCc1ccccc1)n1cc(-c2ccc(-c3ccccc3)cc2)nn1 has inhibition at least equal to 80%.
NOT MET

I'd appreciate it if you could say whether O=C(N1CCC=C[C@@H]1COCc1ccccc1)n1cc(-c2ccccc2)nn1 has inhibition at least equal to 80%.
MET

I'd appreciate it if you could say whether O=C(N1CCCC[C@@H]1Cc1ccccc1)n1cc(-c2ccc(-c3ccccc3)cc2)nn1 has inhibition at least equal to 80%.
MET

I'd appreciate it if you could say whether O=C(N1CCC=C[C@H]1Cc1ccccc1)n1cc(-c2ccc(-c3ccccc3)cc2)nn1 has inhibition at least equal to 80%.
MET

Values compiled from ChEMBL document CHEMBL4261499.
